Data credit: paper PMC9516332

- target: panel of 255 wild-type kinases (Homo sapiens)
- Sequence (Q96KB5 1-322): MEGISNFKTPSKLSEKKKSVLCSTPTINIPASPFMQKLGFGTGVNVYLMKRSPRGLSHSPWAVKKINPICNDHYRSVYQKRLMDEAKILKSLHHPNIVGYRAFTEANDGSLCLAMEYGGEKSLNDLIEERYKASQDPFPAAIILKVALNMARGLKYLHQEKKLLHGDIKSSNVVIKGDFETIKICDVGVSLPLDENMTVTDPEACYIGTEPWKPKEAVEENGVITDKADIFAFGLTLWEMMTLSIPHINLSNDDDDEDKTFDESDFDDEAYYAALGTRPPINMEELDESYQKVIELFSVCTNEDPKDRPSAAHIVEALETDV
- assayOverview: Kinase panel profiling at 1 µmol/L (MSA or IMAP), percentage inhibition
- Type: biochemical
- measurementSetup: kinase PBK; 1 µmol/L single concentration; read-out: %-inhibition at 1 µmol/L, PBK

chemicalStructure	unitText	inhibition at 1 µM
CO[C@]1(C(=O)N[C@@H](C)c2ccc(-n3cc(F)cn3)nc2)CC[C@H](c2nc(C)cc(Nc3cc(C)[nH]n3)n2)CC1	%	-1.86
O=C(Nc1cnn2ccc(N3CCC[C@@H]3c3cc(F)ccc3F)nc12)N1CC[C@H](O)C1	%	-5.44
CCN1C(=O)N(c2c(F)c(OC)cc(OC)c2F)Cc2cnc3[nH]c(CN4CCOCC4)cc3c21	%	-5.57
COc1cc2ncnc(Nc3ccc(F)c(Cl)c3)c2cc1NC(=O)/C=C/CN1CCCCC1	%	-3.28
